# Test system: Plasmodium berghei
# Protocol Details: Luciferase/luciferin-expressing antifolate-resistant parasites were used to infect a culture of HepG2 cells that were pre-incubated with compounds. Infected hepatocytes emit light due to the luciferase reaction. Assay results are presented as the percent inhibition of light emission compared to control. […]
# Assay type: functional
# Condition Info: sporozoite, HEPG2TOX_HILL_SLOPE 2.94, HEPG2TOX_R_SQUARED 0.896, PBLUC_HILL_SLOPE 6.3, PBLUC_R_SQUARED 0.571, read-out: LUCIFERASE INFECTION ASSAY - IC50
Endpoint Name: pIC50
Answer as the number alone; pIC50 is minus log10 of concentration in mol/L.

Task: Determine reported pIC50 for `Cc1cccc(OCCCC(=O)Nc2cc(C)n[nH]2)c1` ; test system: Plasmodium berghei.
Result: 6.02

---

# System: Plasmodium berghei
# Protocol Details: Luciferase/luciferin-expressing antifolate-resistant parasites were used to infect a culture of HepG2 cells that were pre-incubated with compounds. Infected hepatocytes emit light due to the luciferase reaction. Assay results are presented as the percent inhibition of light emission compared to control. […]
# Format: functional
# Condition Info: sporozoite, FFLUC_HILL_SLOPE 3.47, FFLUC_R_SQUARED 0.173, PBLUC_HILL_SLOPE 15.8, PBLUC_R_SQUARED 0.057, read-out: LUCIFERASE INFECTION ASSAY - IC50
Endpoint Name: IC50 (µM)
Please respond with the number in µM and leave the unit unwritten.

Task: Using Plasmodium berghei as the test system, report measured IC50 of `O=C(CNc1cc(C(F)(F)F)ccc1Oc1ccc(Br)cc1)NCCC1=CCCCC1` .
Result: 9.79

---

Can you tell me IC90 for the items I'm about to list?
# Tested on: Plasmodium berghei
# Protocol Details: Luciferase/luciferin-expressing antifolate-resistant parasites were used to infect a culture of HepG2 cells that were pre-incubated with compounds. Infected hepatocytes emit light due to the luciferase reaction. Assay results are presented as the percent inhibition of light emission compared to control. […]
# Assay type: functional
# Condition Info: sporozoite, read-out: LUCIFERASE INFECTION ASSAY - IC90
Response body: numeric value in µM, unit text excluded.

Task: For `Cc1nc(-c2cccc(NC(=O)c3ccc(OC(F)F)cc3)c2)[nH]c1C` , write its IC90.
Result: 2.68

Task: Fill in IC90 for record `COc1ccc(COC(=O)c2cc(C)nc3ccccc23)cc1F`
Result: 0.157

Task: Give me measured IC90, please, for this molecule: OCC1CCCN(c2nn3cc(-c4ccccc4)nc3s2)C1 (configuration not stated)
Result: 0.00758

Task: Quickly give me recorded IC90 for `Cn1ccc2cc(-c3cn4c(-c5cccc(F)c5)cnc4cn3)ccc21`
Result: 2.18

Task: For the molecule FC(F)(F)c1nnc2ccc(NC(c3ccccc3)c3cc4ccccc4o3)nn12 (configuration not stated) , give its reported IC90.
Result: 4.2

Task: Report measured IC90; entry is `O=C(NNC(=S)Nc1cccc(C(F)(F)F)c1)c1[nH]c2ccccc2c1-c1ccccc1`
Result: 2.73

Task: Identify the reported IC90 for the following entry. `O=C(CCSc1nc(NC2CC2)c2ccccc2n1)N1CCc2ccccc21`
Result: 7.86

Task: Find the measured IC90 of `Cc1noc(/C=C/c2nn(C)cc2Cl)c1[N+](=O)[O-]` and report it.
Result: 11.7

Task: Supply IC90 value. Item: CC(C)c1ccc(CN2CCC2(C)C(=O)Nc2cnc3ccccc3c2)cc1 (configuration not stated)
Result: 3.79

Task: Please give the documented IC90 of CC(=O)O[C@H]1CC[C@]2(C)C3CC[C@]4(C)C(C5=CC(=O)OC5)CC[C@]4(O)C3CC[C@@H]2C1 (some centres not stated)
Result: 1.14

Task: Recall and state the measured IC90 for `Cc1onc(-c2c(F)cccc2Cl)c1C(=O)ON=C1C2CC3CC(C2)CC1C3` .
Result: 4.84

Task: Return reported IC90. Input molecule: OC1CCC(Nc2ccn3nc(-c4cccc(OCc5ccccc5)c4)cc3n2)CC1 (configuration not stated)
Result: 7.29

Task: Determine from records and report IC90 for COc1ccc(-c2cc([N+](=O)[O-])ccc2OC(C)C(=O)N2CCC(C)CC2)cc1 (configuration not stated)
Result: 4.24

Task: Using known records, supply IC90 for Cc1ccc(C(=O)OC(C)C(=O)N2CCCC2)cc1S(=O)(=O)N1CCCCC1 (configuration not stated)
Result: 1.37

Task: Give the value of IC90 reported for the following: `Cn1ccc2cc(-c3cn4c(-c5ccc6c(c5)OCO6)cnc4cn3)ccc21`
Result: 0.402

Task: Given the molecule `CC(C)c1noc(CN2CCN(c3ncnc4sc(-c5ccccc5)cc34)CC2)n1` , write its reported IC90.
Result: 6.72

Task: Give recorded IC90. `FC(F)(F)Oc1ccc(Nc2cc3[nH]c(-c4ccccn4)cc3cn2)cc1`
Result: 5.04
